- condition-parameters: bacteroides fragilis, 12 h, 2 µM
- Description: The drug is tested on Bacteroides fragilis strain: 3397 (T10) for biotransformation. The drug concentrations were measured before and after a 12-h incubation by liquid-chromatography-coupled mass spectrometry (LC–MS)
property-label: Bacterial Biotransformation

O=P(O)(O)O.c1ccc(CN(CC2=NCCN2)c2ccccc2)cc1 [ANTAZOLINE PHOSPHATE] | Compound NOT metabolized
CC(=O)CCCCn1c(=O)c2c(ncn2C)n(C)c1=O | Compound NOT metabolized
CC(C)NCC(O)c1ccc(NS(C)(=O)=O)cc1 (configuration not stated) | Compound metabolized
CC(C)(C#N)c1cc(Cn2cncn2)cc(C(C)(C)C#N)c1 | Compound metabolized
CC(=O)CC(c1ccccc1)c1c(O)c2ccccc2oc1=O (configuration not stated) | Compound NOT metabolized
C[C@H]1O[C@@H](O[C@H]2[C@@H](O)C[C@H](O[C@H]3[C@@H](O)C[C@H](O[C@H]4CC[C@@]5(C)[C@H](CC[C@@H]6[C@@H]5C[C@@H](O)[C@]5(C)[C@@H](C7=CC(=O)OC7)CC[C@]65O)C4)O[C@@H]3C)O[C@@H]2C)C[C@H](O)[C@@H]1O | Compound metabolized

(Q) // fetch Bacterial Biotransformation given entry O=C1C(CC[S+]([O-])c2ccccc2)C(=O)N(c2ccccc2)N1c1ccccc1 (configuration not stated)
(A) Compound NOT metabolized
